target: Proto-oncogene tyrosine-protein kinase ROS (Homo sapiens); assay: Inhibition of recombinant human N-terminal GST-tagged ROS (1883 to 2347 residues) expressed in baculovirus expression system using IRS1 as substrate incubated with enzyme and substrate for 5 mins followed by ATP addition followed by further incubation for 30 mins by HTRF assay
Sequence (P08922 whole entry, the tested form may be a part): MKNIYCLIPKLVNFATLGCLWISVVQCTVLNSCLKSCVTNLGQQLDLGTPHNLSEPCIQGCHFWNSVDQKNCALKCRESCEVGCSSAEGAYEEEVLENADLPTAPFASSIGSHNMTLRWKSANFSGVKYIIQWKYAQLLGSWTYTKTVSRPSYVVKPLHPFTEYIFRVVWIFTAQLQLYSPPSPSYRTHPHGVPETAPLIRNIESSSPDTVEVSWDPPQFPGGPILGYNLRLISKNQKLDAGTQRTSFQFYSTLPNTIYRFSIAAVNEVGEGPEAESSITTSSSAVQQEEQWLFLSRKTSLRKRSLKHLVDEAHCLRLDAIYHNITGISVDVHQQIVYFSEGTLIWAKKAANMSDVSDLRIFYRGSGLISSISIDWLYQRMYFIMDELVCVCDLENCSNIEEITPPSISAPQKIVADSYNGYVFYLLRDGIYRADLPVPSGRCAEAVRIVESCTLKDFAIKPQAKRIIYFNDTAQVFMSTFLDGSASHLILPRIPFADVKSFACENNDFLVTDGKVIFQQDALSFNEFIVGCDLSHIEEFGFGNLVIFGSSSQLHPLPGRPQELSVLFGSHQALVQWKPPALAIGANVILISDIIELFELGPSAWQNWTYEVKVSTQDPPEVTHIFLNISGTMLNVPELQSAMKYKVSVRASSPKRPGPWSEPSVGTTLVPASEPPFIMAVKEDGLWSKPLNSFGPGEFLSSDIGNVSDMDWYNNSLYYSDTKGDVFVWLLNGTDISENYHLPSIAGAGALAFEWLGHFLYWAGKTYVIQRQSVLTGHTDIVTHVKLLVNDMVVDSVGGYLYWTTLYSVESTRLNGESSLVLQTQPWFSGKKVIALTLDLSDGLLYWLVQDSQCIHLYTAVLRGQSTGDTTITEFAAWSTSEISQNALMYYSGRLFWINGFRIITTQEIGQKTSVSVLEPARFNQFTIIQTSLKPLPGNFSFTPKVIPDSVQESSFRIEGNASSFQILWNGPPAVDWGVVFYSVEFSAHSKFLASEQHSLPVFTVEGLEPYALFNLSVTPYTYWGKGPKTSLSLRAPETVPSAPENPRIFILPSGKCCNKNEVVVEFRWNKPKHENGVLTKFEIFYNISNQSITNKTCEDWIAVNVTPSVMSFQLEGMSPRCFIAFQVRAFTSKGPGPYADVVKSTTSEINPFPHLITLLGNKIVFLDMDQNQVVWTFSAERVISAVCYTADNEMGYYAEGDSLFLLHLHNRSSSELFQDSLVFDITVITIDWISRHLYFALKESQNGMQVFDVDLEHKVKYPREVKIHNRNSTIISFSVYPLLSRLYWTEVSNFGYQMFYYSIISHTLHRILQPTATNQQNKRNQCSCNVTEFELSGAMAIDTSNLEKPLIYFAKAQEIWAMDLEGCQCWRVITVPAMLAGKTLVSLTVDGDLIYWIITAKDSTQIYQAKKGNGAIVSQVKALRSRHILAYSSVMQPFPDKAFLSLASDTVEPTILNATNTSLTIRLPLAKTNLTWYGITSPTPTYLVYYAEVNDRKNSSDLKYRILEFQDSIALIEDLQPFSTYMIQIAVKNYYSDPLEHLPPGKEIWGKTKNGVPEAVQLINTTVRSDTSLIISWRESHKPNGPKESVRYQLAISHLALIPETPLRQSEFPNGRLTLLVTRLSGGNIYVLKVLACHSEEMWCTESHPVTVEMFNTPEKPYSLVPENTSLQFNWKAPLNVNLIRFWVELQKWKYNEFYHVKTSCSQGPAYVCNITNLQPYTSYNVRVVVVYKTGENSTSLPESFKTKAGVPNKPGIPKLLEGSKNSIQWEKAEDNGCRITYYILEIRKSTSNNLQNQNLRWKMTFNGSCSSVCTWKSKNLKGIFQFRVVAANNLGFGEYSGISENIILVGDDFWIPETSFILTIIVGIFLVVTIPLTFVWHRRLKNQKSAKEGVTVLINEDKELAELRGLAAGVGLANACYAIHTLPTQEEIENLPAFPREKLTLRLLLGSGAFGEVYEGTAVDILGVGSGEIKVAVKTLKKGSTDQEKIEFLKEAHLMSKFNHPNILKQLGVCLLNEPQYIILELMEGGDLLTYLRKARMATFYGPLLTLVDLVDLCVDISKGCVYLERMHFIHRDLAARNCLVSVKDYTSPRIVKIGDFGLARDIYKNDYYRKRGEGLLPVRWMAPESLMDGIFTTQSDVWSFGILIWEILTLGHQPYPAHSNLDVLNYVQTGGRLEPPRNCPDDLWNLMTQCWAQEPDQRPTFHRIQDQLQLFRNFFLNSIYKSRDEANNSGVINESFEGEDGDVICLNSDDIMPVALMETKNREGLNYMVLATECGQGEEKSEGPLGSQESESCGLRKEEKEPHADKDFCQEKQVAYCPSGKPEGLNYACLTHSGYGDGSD
readoutType: IC50 (nM)
Give the value in nM but do not write nM after it.

Query :: Entry C[C@@H](Oc1cc(-c2ccn(CCN(C)C)c(=O)c2)cnc1N)c1c(Cl)ccc(F)c1Cl has what IC50?
Result :: 2.3

* * *

assay: cells; settings: Homo sapiens, SKNBE2, 72 h
Description: Antiproliferative activity against human SK-N-BE(2) cells expressing wild type ALK assessed as reduction in cell viability incubated for 72 hrs by MTT assay
Quick list: IC50 per entry.
Just the number please, in nM, no unit attached.

Known IC50 results, listed for orientation:
CCCn1ccc(-c2cnc(N)c(O[C@H](C)c3c(Cl)ccc(F)c3Cl)c2)cc1=O : 1430
C[C@@H](Oc1cc(-c2ccn(CCN(C)C)c(=O)c2)cnc1N)c1c(Cl)ccc(F)c1Cl : 710

Query :: For the molecule shown here, C[C@@H](Oc1cc(-c2ccn(Cc3ccccc3)c(=O)c2)cnc1N)c1c(Cl)ccc(F)c1Cl , give the reported IC50.
Result :: 1020

Query :: // returns reported IC50 for input CCn1ccc(-c2cnc(N)c(O[C@H](C)c3c(Cl)ccc(F)c3Cl)c2)cc1=O
Result :: 1440

Query :: Please report the recorded IC50 for CCOC(=O)Cn1ccc(-c2cnc(N)c(O[C@H](C)c3c(Cl)ccc(F)c3Cl)c2)cc1=O .
Result :: 1230

Query :: Using the record for C[C@@H](Oc1cc(-c2ccn(C)c(=O)c2)cnc1N)c1c(Cl)ccc(F)c1Cl , report its IC50.
Result :: 830

Query :: Value lookup for IC50; key = C[C@@H](Oc1cc(-c2cc[nH]c(=O)c2)cnc1N)c1c(Cl)ccc(F)c1Cl
Result :: 750

src = ChEMBL document CHEMBL4406858
